target: T1, L^245C/E^578C EGFR (full-length human, FLAG tag) on BaF/3 cells (human, UniProt P00533 25-1210); assay: Scatchard, 125I-EGF on BaF/3 cells, Kd2 (low-affinity site)
T1 construct: whole, on cells
pKd: −log10 of the molar value.
Reported metric: pKd

[[record]]
binder = "Murine EGF, purified from mouse submaxillary glands (ligand, UniProt P01132 977-1029, looked up, iodinated with 125I (Iodogen) as tracer in the Scatchard assays, mature; also called ^125I-EGF) NSYPGCPSSYDGYCLNGGVCMHIESLDSYTCNCVIGYSGDRCQTRDLRWWELR"
reported_metric = "pKd"
val = 8.68

